assay: nmpC-GFP reporter counter-screen in S. Typhimurium, dose response, counter-screen for PhoP regulon inhibitor project, Salmonella Typhimurium, GFP fluorescence (AID 2401); details: 4 h; series mostly up to 150 µM;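 note: S. typhimurium with Mg-insensitive nmpC-GFP reporter grown at 10 µM Mg2+; drop in reporter fluorescence reflects general culture growth inhibition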
Hit rate of the full screen: of about 2,200 compounds, about 530 (24%) were called active. Only a sample is shown. Potency and affinity values are given separately.
PARAMETER: outcome

Would you please look over these solved cases?
1. CC(=O)n1cc(/C=N/NC(=O)c2sc(C)nc2C)c2ccccc21: inactive
2. Cc1cc(C)cc(CC(Cc2nc3ccccc3[nH]2)c2nc3ccccc3[nH]2)c1 (stereo unspecified): inactive
3. O=C(Nc1cccc(Cl)c1)C1C2CCC3C(CCC21)C3(Cl)Cl (stereo unspecified): inactive
4. COc1ccc(OCCn2cc(/C=N/NC(=O)c3ccncc3)c3ccccc32)cc1: inactive
5. CCNC(=O)COC(=O)CCC(=O)c1cccs1: inactive
6. Cn1c(=O)n(CC(=O)Nc2ccccc2)c2ccccc21: inactive

Name the reported outcome value associated with the compound Cc1cccc(OCC(=O)N(Cc2cccs2)C2CCS(=O)(=O)C2)c1C (stereo unspecified) inactive

Name the reported outcome value associated with the compound COCCn1c(-c2ccccc2F)n[nH]c1=S inactive

Name the reported outcome value associated with the compound CC(=O)NC1C(c2nc3ccccc3s2)=C(c2ccccc2)C(=O)N1c1ccc(C)cc1 (stereo unspecified) inactive

Name the reported outcome value associated with the compound COc1ccc(S(=O)(=O)N2CCN(Cc3ccccc3)CC2)cc1 inactive

Name the reported outcome value associated with the compound Cc1nc2c(Cl)cccc2c2c1CC(CBr)O2 (stereo unspecified) inactive

###

assay: nmpC-GFP reporter counter-screen in S. Typhimurium, dose response, counter-screen for PhoP regulon inhibitor project, Salmonella Typhimurium, GFP fluorescence (AID 2401); conditions: 4 h; series mostly up to 150 µM;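 note: S. typhimurium with Mg-insensitive nmpC-GFP reporter grown at 10 µM Mg2+; drop in reporter fluorescence reflects general culture growth inhibition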
The whole screen tested about 2,200 compounds, of which about 530 (24%) were called active. Not all results are given here. Entries with a potency or affinity are not part of this list.
PARAMETER: outcome

Would you please look over these solved cases?
1) O=C(N/N=C/c1ccc(F)cc1)c1cc(-c2ccco2)nc2ccccc12: inactive
2) O=C1/C(=C/c2ccccc2)NC(=S)N1C(c1ccccc1)c1ccccc1: inactive
3) CCOC(=O)C1CCCN(C(=O)c2sc3nc(C)nc(N4CCOCC4)c3c2C)C1 (stereo unspecified): inactive
4) CCOc1ccc2c(c1)nc(SCC(=O)c1ccc(Br)s1)n2C: inactive

Name the reported outcome value associated with the molecule CCOc1cc(C2Nc3cccc4cccc(c34)N2)ccc1O inactive

Name the reported outcome value associated with the molecule CN(C)c1ccnc(-n2cccc2/C=N/OCc2ccccc2)c1C#N inactive

###

test: nmpC-GFP reporter counter-screen in S. Typhimurium, dose response, counter-screen for PhoP regulon inhibitor project, Salmonella Typhimurium, GFP fluorescence (AID 2401); conditions: 4 h; series mostly up to 150 µM;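 note: S. typhimurium with Mg-insensitive nmpC-GFP reporter grown at 10 µM Mg2+; drop in reporter fluorescence reflects general culture growth inhibition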
The whole screen tested about 2,200 compounds, of which about 530 (24%) were called active. These entries were drawn from the full list. Measured potencies and affinities stand elsewhere.
PARAMETER: outcome

1) Cc1ccc(Nc2nnc(C3C(=O)N(C)C4(C)CC3c3cc(Br)ccc3O4)s2)cc1 (stereo unspecified): inactive
2) O=C(c1ccc2nc(N3CCOCC3)sc2c1)N1CCC(Cc2ccccc2)CC1: inactive
3) Cc1ccc(/C=C2\SC(=S)N(Cc3ccccc3)C2=O)o1: inactive
4) O=C(Cc1cccs1)Nc1nc2c(s1)CCCC2: inactive

Name the reported outcome value associated with the compound CCN(CC)S(=O)(=O)c1cccc(NC(=O)Nc2cccc(C(F)(F)F)c2)c1 inactive

Name the reported outcome value associated with the compound Cc1ccc(C)n1-c1cc(S(=O)(=O)N2CCOCC2)ccc1N1CCCC1 inactive

Name the reported outcome value associated with the compound CCOC(=O)N1CCN(S(=O)(=O)c2ccc(C(=O)NNc3nc4cc(C)cc(C)c4s3)cc2)CC1 inactive
